- Assay Explanation: alamarBlue cytotoxicity (CC50), GT2a replicon cell line
- Measurement Parameters: human
Assay Metric: CC50 at 72 h

Inquiry: Query: CC50 at 72 h; subject: CC=CCC(C)C(O)C1C(=O)NC(CC)C(=O)N(C)C(CSCCCCO)C(=O)N(C)C(CC(C)(C)O)C(=O)NC(C(C)C)C(=O)N(C)C(CC(C)C)C(=O)NC(C)C(=O)NC(C)C(=O)N(C)C(CC(C)C)C(=O)N(C)C(CC(C)C)C(=O)N(C)C(C(C)C)C(=O)N1C (stereo not shown) [STG-175]
Reply text: > 10 µM

----------
- Assay Explanation: alamarBlue cytotoxicity (CC50), GT4a replicon cell line
- Measurement Parameters: human
Assay Metric: CC50 at 72 h

Inquiry: CC50 at 72 h for CC=CCC(C)C(O)C1C(=O)NC(CC)C(=O)N(C)C(CSCCCCO)C(=O)N(C)C(CC(C)(C)O)C(=O)NC(C(C)C)C(=O)N(C)C(CC(C)C)C(=O)NC(C)C(=O)NC(C)C(=O)N(C)C(CC(C)C)C(=O)N(C)C(CC(C)C)C(=O)N(C)C(C(C)C)C(=O)N1C (stereo not shown) ?
Reply text: > 10 µM
